Measured values drawn from ChEMBL document CHEMBL4321812 for this set.

Some compounds, each annotated with its measured Kd.
# target_or_system: Serine/threonine-protein kinase TBK1 (Homo sapiens)
# Sequence (Q9UHD2 whole entry): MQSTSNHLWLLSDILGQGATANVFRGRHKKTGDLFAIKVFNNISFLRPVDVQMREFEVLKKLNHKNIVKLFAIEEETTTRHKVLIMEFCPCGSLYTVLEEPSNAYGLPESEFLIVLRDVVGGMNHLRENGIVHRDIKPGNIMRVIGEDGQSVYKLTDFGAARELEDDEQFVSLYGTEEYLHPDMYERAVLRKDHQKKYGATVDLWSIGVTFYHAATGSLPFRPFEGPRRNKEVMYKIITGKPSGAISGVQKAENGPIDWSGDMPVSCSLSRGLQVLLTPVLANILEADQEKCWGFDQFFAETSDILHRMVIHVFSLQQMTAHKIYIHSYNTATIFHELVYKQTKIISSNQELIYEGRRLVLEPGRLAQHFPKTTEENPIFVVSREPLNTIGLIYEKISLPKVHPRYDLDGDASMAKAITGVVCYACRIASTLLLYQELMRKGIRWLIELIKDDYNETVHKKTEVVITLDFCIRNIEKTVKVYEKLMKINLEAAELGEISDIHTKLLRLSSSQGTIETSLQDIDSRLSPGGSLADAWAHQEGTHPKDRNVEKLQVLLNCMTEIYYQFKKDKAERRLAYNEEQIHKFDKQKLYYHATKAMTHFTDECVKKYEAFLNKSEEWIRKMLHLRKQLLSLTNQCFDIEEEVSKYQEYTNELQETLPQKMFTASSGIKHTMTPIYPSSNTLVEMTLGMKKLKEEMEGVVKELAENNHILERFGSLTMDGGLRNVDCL
# protocol_description: Binding affinity to recombinant human full length N-terminal GST-tagged TBK1 expressed in baculovirus expression system using CKtide as substrate incubated for 1 hr by TR-FRET assay

IN: Which Kd value belongs to `CO[C@@H]1[C@H](NCCOCCOCCOCCNC(=O)CCC2=[N+]3C(=Cc4c(C)cc(C)n4[B-]3(F)F)C=C2)C[C@H]2O[C@]1(C)n1c3ccccc3c3c4c(c5c6ccccc6n2c5c31)C(=O)NC4` ?
OUT: 17 nM

IN: // lookup Kd for `CO[C@@H]1[C@H](N(C)CCOCCOCCOCCNC(=O)CCC2=[N+]3C(=Cc4c(C)cc(C)n4[B-]3(F)F)C=C2)C[C@H]2O[C@]1(C)n1c3ccccc3c3c4c(c5c6ccccc6n2c5c31)C(=O)NC4`
OUT: 9 nM

----------
Readings of pKd for the listed molecules
# target_or_system: Tyrosine-protein kinase JAK3 (Homo sapiens)
# Sequence (P52333 whole entry): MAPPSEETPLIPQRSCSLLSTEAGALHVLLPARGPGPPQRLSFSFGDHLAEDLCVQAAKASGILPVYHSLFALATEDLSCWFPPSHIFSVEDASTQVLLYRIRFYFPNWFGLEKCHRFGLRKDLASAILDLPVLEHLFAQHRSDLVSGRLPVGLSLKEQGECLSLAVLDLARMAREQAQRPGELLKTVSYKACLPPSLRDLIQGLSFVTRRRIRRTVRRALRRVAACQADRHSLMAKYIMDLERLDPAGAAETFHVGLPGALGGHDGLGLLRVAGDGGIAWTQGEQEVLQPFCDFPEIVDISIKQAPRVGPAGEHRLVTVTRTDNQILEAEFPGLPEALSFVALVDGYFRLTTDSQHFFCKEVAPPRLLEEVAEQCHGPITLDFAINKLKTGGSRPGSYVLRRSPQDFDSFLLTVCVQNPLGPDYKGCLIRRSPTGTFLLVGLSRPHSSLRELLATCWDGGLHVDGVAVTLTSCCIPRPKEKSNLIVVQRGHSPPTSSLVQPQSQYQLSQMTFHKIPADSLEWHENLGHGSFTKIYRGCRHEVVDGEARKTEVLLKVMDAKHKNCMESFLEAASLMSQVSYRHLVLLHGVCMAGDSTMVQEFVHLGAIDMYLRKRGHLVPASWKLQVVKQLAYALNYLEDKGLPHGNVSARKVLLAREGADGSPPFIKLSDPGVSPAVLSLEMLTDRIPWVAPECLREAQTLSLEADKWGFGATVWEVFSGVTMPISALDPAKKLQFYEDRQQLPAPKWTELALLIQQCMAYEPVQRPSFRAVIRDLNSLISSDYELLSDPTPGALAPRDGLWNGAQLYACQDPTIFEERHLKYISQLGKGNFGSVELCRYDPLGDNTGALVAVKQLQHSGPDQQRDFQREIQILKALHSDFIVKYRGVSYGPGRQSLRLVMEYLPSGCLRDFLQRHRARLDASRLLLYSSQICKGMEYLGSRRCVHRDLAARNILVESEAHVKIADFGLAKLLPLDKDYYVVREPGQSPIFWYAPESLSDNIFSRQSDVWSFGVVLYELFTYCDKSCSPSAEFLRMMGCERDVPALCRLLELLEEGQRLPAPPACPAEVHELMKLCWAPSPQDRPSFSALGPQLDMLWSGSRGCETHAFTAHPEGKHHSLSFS
# protocol_description: Binding affinity to recombinant full-length N-terminal His-FLAG-GST-tagged JAK3 (unknown origin) (795 to 1124 residues) expressed in baculovirus infected Sf9 insect cells incubated for 1 hr by TR-FRET assay
Kindly note that pKd refers to -log10 of the concentration in mol/L and answer with the value alone.

CO[C@@H]1[C@H](N(C)CCOCCOCCOCCNC(=O)CCC2=[N+]3C(=Cc4c(C)cc(C)n4[B-]3(F)F)C=C2)C[C@H]2O[C@]1(C)n1c3ccccc3c3c4c(c5c6ccccc6n2c5c31)C(=O)NC4
7.89

IN: For the molecule shown here, `CO[C@@H]1[C@H](NCCOCCOCCOCCNC(=O)CCC2=[N+]3C(=Cc4c(C)cc(C)n4[B-]3(F)F)C=C2)C[C@H]2O[C@]1(C)n1c3ccccc3c3c4c(c5c6ccccc6n2c5c31)C(=O)NC4` , give the reported pKd.
OUT: 7.85
